Reference for the values: PubChem BioAssay (EPA / NIEHS)

Read-out: Interleukin-8 (IL8), CXCL8 (gene 3576)
Experiment: BSK_CASM3C_IL8: BioMAP Diversity Plus: CASM3C Assay for Interleukin-8 (IL8) Biomarker Activity (AID 2283042);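 further: IL-8 protein level quantified by ELISA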
Test context: primary human coronary artery smooth muscle cells; actives raise or lower the signal
Calls of active or inactive are those of the source. How the source made its calls: active means hit-call score of the fitted dose curve at least 0.9, where 1 is the maximum; inactive means score below 0.9.
Could you please pick one outcome from this set? active, inactive

Answered examples (5):
{"columns": ["Compound", "Answer label"],
 "data": [
  ["C[C@@H](Oc1ccc(CNC(=O)c2cccnc2Oc2ccc3c(c2)OCO3)c(F)c1)C(=O)O", "inactive"],
  ["CCCOc1ccc(S(=O)(=O)N2CCN(CC)CC2)cc1-c1nc2c(CC)n(Cc3ccccn3)nc2c(=O)[nH]1", "inactive"],
  ["O=C(Cl)C(F)(F)C(F)(F)C(F)(F)C(=O)Cl", "inactive"],
  ["CNC(C)=O", "inactive"],
  ["CCn1nc(C)c2c1C(=O)NCC(c1ccc(O)cc1)=N2", "inactive"]
]}

Incoming: What call does the record list for OC(Cn1cncn1)(Cn1cncn1)c1ccc(F)cc1F ?
Outgoing: inactive

Incoming: What call does the record list for CCCC(CCC)C(=O)O ?
Outgoing: inactive
